Test system: NOMO1
Test: cell viability relative to DMSO control; higher = less cytotoxic
Details: HPLM + 10% dialyzed FBS; 48 h; 0.0632 µM
ENDPOINT: cell viability (%)
Respond numerically; units are % and should not be typed.

Enter measured cell viability, system NOMO1, for the compound shown: `[O-]C(=O)C/1=N/C(=O)NC(=O)N1` 101

Enter measured cell viability, system NOMO1, for the compound shown: `CN(C)c1ccc2nc3ccc(N(C)C)cc3[s+]c2c1` 106

Enter measured cell viability, system NOMO1, for the compound shown: `COc1cc2ncn(-c3cc(OCc4ccccc4[S+](C)(=O)[O-])c(C#N)s3)c2cc1OC` 84

Enter measured cell viability, system NOMO1, for the compound shown: COc1ccc(C(CN(C)C)C2(O)CCCCC2)cc1 (configuration not stated) 115

Enter measured cell viability, system NOMO1, for the compound shown: `O=[N+]([O-])c1ncc[nH]1` 91

Enter measured cell viability, system NOMO1, for the compound shown: `CN1CCN(c2c(F)cc3c(=O)c(C(=O)O)cn(CCF)c3c2F)CC1` 101

Enter measured cell viability, system NOMO1, for the compound shown: `O=C1\C=C/C=C2/[C@H]3CNC[C@H](C3)CN12` 133

Enter measured cell viability, system NOMO1, for the compound shown: `CC(=O)N[C@@H]1[C@@H](NC(N)=N)\C=C(/O[C@H]1[C@H](O)[C@H](O)CO)C(O)=O` 127

Enter measured cell viability, system NOMO1, for the compound shown: C=C1C(=O)OC(CCCCCCCC)C1C(=O)O (configuration not stated) 135

Enter measured cell viability, system NOMO1, for the compound shown: `NC[C@@H]1O[C@H](O[C@H]2[C@@H](O)[C@H](O[C@@H]3[C@@H](O)[C@H](N)C[C@H](N)[C@H]3O[C@H]3O[C@H](CN)[C@@H](O)[C@H](O)[C@H]3N)O[C@@H]2CO)[C@H](N)[C@@H](O)[C@@H]1O.O=S(=O)(O)O.O=S(=O)(O)O.O=S(=O)(O)O` 101

Enter measured cell viability, system NOMO1, for the compound shown: CCCC(C)(COC(N)=O)COC(=O)NC(C)C (configuration not stated) 143

Enter measured cell viability, system NOMO1, for the compound shown: CC1(CN2CCC(n3c(=O)[nH]c4ccccc43)CC2)OCc2ccccc2-n2cccc21 (configuration not stated) 96.8

====

Tested on: NOMO1
Test: cell viability relative to DMSO control; higher = less cytotoxic
Settings: RPMI 5 mM glucose + 10% FBS; 48 h; 5.12 µM
ENDPOINT: cell viability (%)
Respond numerically; units are % and should not be typed.

Enter measured cell viability, system NOMO1, for the molecule shown: `C[C@H]1C[C@H]2[C@@H]3CC[C@](O)(C(=O)CO)[C@@]3(C)C[C@H](O)[C@@H]2[C@@]\4(C)/C=C\C(=O)\C=C14` 89.5

Enter measured cell viability, system NOMO1, for the molecule shown: CC1(CN2CCC(n3c(=O)[nH]c4ccccc43)CC2)OCc2ccccc2-n2cccc21 (configuration not stated) 92.5

Enter measured cell viability, system NOMO1, for the molecule shown: `CCN(CC)CCOc1ccc(Cc2ccccc2)cc1` 83.4

Enter measured cell viability, system NOMO1, for the molecule shown: `NC(=O)Nc1sc(-c2ccc(F)cc2)cc1C(N)=O` 95.9

Enter measured cell viability, system NOMO1, for the molecule shown: `CCOc1cc2ncc(C#N)c(Nc3ccc(F)c(Cl)c3)c2cc1NC(=O)/C=C/CN(C)C` 66.2

Enter measured cell viability, system NOMO1, for the molecule shown: `O=C1CCC[C@@H]2[C@H]3CCCN4CCC[C@@H](CN12)[C@@H]34` 17.2

Enter measured cell viability, system NOMO1, for the molecule shown: `CC(=O)N[C@@H]1[C@@H](NC(N)=N)\C=C(/O[C@H]1[C@H](O)[C@H](O)CO)C(O)=O` 111

Enter measured cell viability, system NOMO1, for the molecule shown: Cc1ccccc1C(OCCN(C)C)c1ccccc1 (configuration not stated) 127

Enter measured cell viability, system NOMO1, for the molecule shown: `Cc1cc(OCCC[S+](C)(=O)[O-])cc(C)c1-c1cccc(COc2ccc3c(c2)OC[C@H]3CC(=O)O)c1` 98

Enter measured cell viability, system NOMO1, for the molecule shown: `CC(C)=CCC/C(C)=C/CC/C(C)=C/CC/C(C)=C/CC/C(C)=C/CC/C(C)=C/CC/C(C)=C/CC/C(C)=C/CC/C(C)=C/CO` 92.6

Enter measured cell viability, system NOMO1, for the molecule shown: `O=C(Nc1nnc(-c2ccco2)o1)c1cc(-c2ccccc2)nc2ccccc12` 98.3

Enter measured cell viability, system NOMO1, for the molecule shown: `CC(C)N(C[C@H]1O[C@@H](n2cnc3c(N)ncnc32)[C@H](O)[C@@H]1O)[C@H]1C[C@@H](CCc2nc3cc(C(C)(C)C)ccc3[nH]2)C1` 99.1
